# subject_of_test: T1, murine CD300D-Fc (mouse)
# T1 construct: mouse IgG2a-Fc fusion (R&D Systems); the entry is the whole fusion chain; also called mCD300D; Mouse CD300D-Fc
# T1 chain: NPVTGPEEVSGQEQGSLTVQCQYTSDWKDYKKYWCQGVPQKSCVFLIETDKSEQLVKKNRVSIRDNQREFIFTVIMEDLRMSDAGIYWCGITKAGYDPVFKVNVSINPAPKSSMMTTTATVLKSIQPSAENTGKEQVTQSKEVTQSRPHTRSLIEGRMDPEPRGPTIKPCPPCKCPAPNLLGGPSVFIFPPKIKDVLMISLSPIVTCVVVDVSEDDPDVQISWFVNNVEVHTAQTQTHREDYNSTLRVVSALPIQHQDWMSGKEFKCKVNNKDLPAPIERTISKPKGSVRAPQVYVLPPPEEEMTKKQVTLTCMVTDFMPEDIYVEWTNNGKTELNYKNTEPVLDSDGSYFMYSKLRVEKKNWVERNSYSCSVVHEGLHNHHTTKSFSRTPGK
# run_description: SPR (Carterra LSA), antibody immobilised, Fc fusion at 300 or 600 nM
# Method: Binding of mouse anti-CD300LB IgG1 antibodies of the present disclosure to human and murine CD300 orthologs were evaluated by surface plasmon resonance (SPR) using a Carterra LSA instrument (Carterra, Salt Lake City, UT). […] Binding was assessed by injecting each analyte over the entire antibody array using the single channel flow cell. […] Data were processed and analyzed using NextGenKIT high-throughput kinetics analysis software (Carterra). […]
property_label: SPR binding (control subtracted)
Provide a numeric answer; units are not to be included.

[
  {
    "binder": "anti-CD300LB antibody CD-11 (antibody, V domains shown) VH: QIQLVQSGPEVKKPGETVKISCKASGYTLTDYSMHWVMQTPGTGLKWMAWMNTETGEPTYADDFKGRFAFSLETSAGTAYLQIDNLKNEDTATYFCATYGKSYGMKYWGQGTSVTVSS VL: DIVLTQSPPSLAVSLGQRATISCRATKSVSPYLHWYQQTPGQPPKLLIYLASNLDSGVPARFSGSGSGTDFTLNIHPVEEEDAATYYCQHNKELPPTFGGGTRLEIK",
    "property_label": "SPR binding (control subtracted)",
    "numeric_readout": -0.1
  }
]

-- ask What measured SPR binding (control subtracted) goes with anti-CD300LB antibody CD-15 (antibody, V domains shown) VH: QIQLVQSGPELKKPGETVKISCQVSGYTFTDYSMHWLKQAPGKGLKWMAWINTETGESTYTDEFKGRFVFSLETSVRTAYLKINNLKNEDTATYFCGTYGSSYGMAYWGQGTSVTVSS VL: DIVLTQSPASLPVSLGQRATISCRASKSVSTSGSSYLHWYQQKPGQPPKLLIYLASKLESGVPARFRGSGSGTDFTLNIHPVEEEDAATYYCQHNREVPPTFGGGTKLEIK ?
-- reply 1.7

-- ask Then this binder: anti-CD300LB antibody CD-18 (antibody, V domains shown) VH: DVQLQESGPDLVKPSQSLSLTCTVTGYSITSGYSWHWIRQFPDNKLEWMGYILSRGDTNFNPSLKSRISITRSTSNNQFFLHFNSVTTEDTATYYCARDFFDYWGQGTTLTVSS VL: DVLMTQTPLSLPVSLGDQASISCRSSQSIVHSNGNTYLEWYLQKPGQSPKLLIYKVSDRFSGVPDRFSGSGSGTDFTLKISRVEAEDLGVYFCFQGSHVPYTFGGGTKLEIK
-- reply 0.6

-- ask Same for anti-CD300LB antibody CD-17 (antibody, V domains shown) VH: QIQLVQSGPELKKPGETVKISCKASGYTLTDYSMHWVKQAPGKGLKWMGWINTETGEPRYGDDFKGRFAFSLETSASSAYLQINNLKNDDTATYFCATYGRSYGMDFWGQGTSVTVSS VL: DIVLTQSPASLAVSLGQRATISCRASKSVSPSGHSYMHWYQQKPGQPPKLLIYLASNLKSGVPARFSGSGSGTDFTLNIHPVEEGDAATYYCQHNRELPPTFGGGSKLEIK
-- reply 0.8

-- ask Request: anti-CD300LB antibody CD-12 (antibody, V domains shown) VH: QIQLVQSGPELKKPGETVKISCKASGYTFTDYSMHWVRQAPGKGLKWMAWINTETGEATHADDFKGRFDFSLDTSASTAYLQIKNLKNEDTGIYFCVCYGSSYGMDYWGQGTSVTVSS VL: DIVLTQSPASLPVSLGQRATISCRASKSVRTSGASYMHWYQQKPGQPPKLLIYLASNLKSGVPTRFSGSGSGTDFTLNIHPVEEEDAATYYCQHNREVPPTFGGGTKLEIK
-- reply 0.6
